- Target Or Test System: Excitatory amino acid transporter 2 (Homo sapiens, UniProt P43004)
- Experiment Summary: Inhibitory concentration against glutamate uptake in HEK cells expressing human Excitatory amino acid transporter 2
- Format: cell-based, HEK293
Value Kind: IC50 (nM)

Worked set:
{"Compound": "N[C@@H](CC(=O)Nc1ccc2c(c1)Cc1cc(Cl)ccc1-2)C(=O)O", "Measured Value": 100}
{"Compound": "N[C@@H](CC(=O)Nc1ccc(Cc2ccccc2)cc1)C(=O)O", "Measured Value": 1000}
{"Compound": "CCc1cc(-c2ccc(F)c(Cl)c2)ccc1NC(=O)C[C@H](N)C(=O)O", "Measured Value": 600}

A = CCN1c2ccccc2Oc2ccc(NC(=O)CC(N)C(=O)O)cc21 (stereo not given)
B = N[C@@H](CC(=O)Nc1ccc(Oc2cc(F)c(F)cc2Br)cc1)C(=O)O
## Input Recorded IC50 values differ for A and B ; which one is higher? Lab note: record the label of whichever item you select.
## Output A
(A: 300 nM, B: 80 nM)

---

- Target Or Test System: Excitatory amino acid transporter 3 (Homo sapiens)
- Sequence (P43005 whole entry): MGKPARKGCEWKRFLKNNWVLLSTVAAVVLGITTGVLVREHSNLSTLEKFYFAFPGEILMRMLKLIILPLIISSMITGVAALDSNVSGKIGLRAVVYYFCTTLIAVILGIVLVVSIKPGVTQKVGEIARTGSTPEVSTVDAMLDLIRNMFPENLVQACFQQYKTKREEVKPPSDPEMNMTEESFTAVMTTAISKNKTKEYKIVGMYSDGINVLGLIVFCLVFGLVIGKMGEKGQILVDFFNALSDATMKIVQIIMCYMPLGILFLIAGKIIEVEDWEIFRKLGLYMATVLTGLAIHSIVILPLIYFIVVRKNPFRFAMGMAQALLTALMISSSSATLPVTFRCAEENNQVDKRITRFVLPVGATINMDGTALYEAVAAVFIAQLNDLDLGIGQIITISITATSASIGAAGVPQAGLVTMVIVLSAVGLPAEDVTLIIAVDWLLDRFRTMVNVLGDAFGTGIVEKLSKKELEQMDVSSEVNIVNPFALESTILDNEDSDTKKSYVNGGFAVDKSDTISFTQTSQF
- Experiment Summary: Inhibitory concentration against glutamate uptake in HEK cells expressing human Excitatory amino acid transporter 3
pIC50: −log10 of the molar value.
Value Kind: pIC50

{"Molecular String": "N[C@@H](CC(=O)Nc1ccc2c(c1)Cc1cc(Cl)ccc1-2)C(=O)O", "pIC50": 6.70}
{"Molecular String": "N[C@@H](CC(=O)Nc1c(F)c(F)c(-c2cccc(C(F)(F)F)c2)c(F)c1F)C(=O)O", "pIC50": 5.30}
{"Molecular String": "N[C@@H](CC(=O)Nc1ccc2c(c1)Cc1cc(Br)ccc1-2)C(=O)O", "pIC50": 6.19}

A = Cc1cc(-c2cccc(C(F)(F)F)c2)ccc1NC(=O)C[C@H](N)C(=O)O
B = N[C@@H](CC(=O)Nc1ccc(Cc2ccccc2)cc1)C(=O)O
## Input Could you check which of A and B has a smaller value for pIC50? // return label of chosen record
## Output B

---

- Target Or Test System: Excitatory amino acid transporter 3 (Homo sapiens)
- Experiment Summary: Inhibitory concentration against glutamate uptake in HEK cells expressing human Excitatory amino acid transporter 3
Value Kind: IC50 (µM)

Recorded results for 3 compounds are shown here.
{"Compound": "NC(CC(=O)Nc1ccc(-c2ccccc2)cc1)C(=O)O (stereo unspecified)", "IC50, µM": 1}
{"Compound": "Cc1cc(NC(=O)C[C@H](N)C(=O)O)ccc1-c1ccc(C(F)(F)F)cc1", "IC50, µM": 3}
{"Compound": "N[C@@H](CC(=O)Nc1ccc(-c2ccc3ccccc3c2)cc1)C(=O)O", "IC50, µM": 3}

P = N[C@@H](CC(=O)Nc1ccc(Oc2cc(F)c(F)cc2Br)cc1)C(=O)O
Q = Cc1ccccc1-c1ccc(NC(=O)C[C@H](N)C(=O)O)cc1
R = Cc1cc(NC(=O)C[C@H](N)C(=O)O)ccc1-c1cccc(C(F)(F)F)c1
## Input Order the items by recorded IC50; the first position goes to the largest value. I would appreciate it if you listed the labels in the requested order.
## Output Q, P, R
